# study.target: Neu5Ac(a2-8)Neu5Ac
# assay.text: glycan array binding signal (z-score within array); higher = stronger binding
# assay.conditions: glycan notation: IUPAC condensed, linker removed
This is one part of a sample in which the strongest signals are shown more often than they occur.
# reported glycan array binding signal (z-score); entries follow
Lab note: write the figure by itself, no unit.

Epa3to2 (Candida glabrata) (protein) MGSSHHHHHHSSGLVPRGSHMKRELSSQNPFGYPIGCSPQDVAIIPGLTMELYSYPIVSGTPPNCYDASYVDPEYPRTGYLKRKMVGKSTGVTGNLNYKYSVEKACMVKYGNLPAGYNYNEPLTVSNFTMILYGYFKAQTTGLHTFFVNADDLLYINFGAGNAFDCCKREDSKTKLGEYVAYDIWHVDSSKNKVSLFLEKDLYYPIRMFFNNRDNNSSLDLSFSVNGATDQISDFSGYLYSVPDQPDTCPAHIGYDTTCR | 1.01

Q) Which glycan array binding signal (z-score) value belongs to Clone646PsrP (Streptococcus pneumoniae) (protein) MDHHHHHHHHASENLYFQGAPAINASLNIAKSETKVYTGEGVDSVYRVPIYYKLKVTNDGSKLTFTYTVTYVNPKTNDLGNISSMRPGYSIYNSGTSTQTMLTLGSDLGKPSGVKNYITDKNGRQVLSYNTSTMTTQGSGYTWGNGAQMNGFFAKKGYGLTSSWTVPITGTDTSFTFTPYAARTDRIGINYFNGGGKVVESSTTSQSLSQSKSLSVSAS ?
A) 0.174

Q) Item HA-00510 (Pseudomonas aeruginosa), Q02V39_PSEAB (protein) GVPIVNIATPNGAGLSNNHFRDYNVGANGLILNNATGKTQGTQLGGIILGNPNLKGQAAQVILNQVTGGNRSTLAGYTEVAGQSARVIVANPHGITCQGCGFINTPRATLTTGKPIMDGQRLERFQVDGGDIVVEGAELNVGNLEQFDLITRSAKLNAKLYAKNLNIVTGRNDVQADSLQATPRAADGSEKPQLAIDSSALGGMYAGAIRLVGTEQGVGVKLAGDMAASGGDIRIDASGKLSLAQASSQGDLKIAAQAVELNGKTYAGGSAEIRSAEELVNRQS has what recorded glycan array binding signal (z-score)?
A) 0.611
